biological target: IL-17A (Homo sapiens, UniProt Q16552); assay: Inhibition of IL-17A induced IL-6 release from dermal fibroblast cell line (HDF cell line assay); details: human dermal fibroblasts (HDF) stimulated with IL-17A 50 pM + TNF-α 25 pM; IL-6 measured by HTRF; pIC50 = −log10[IC50], IC50 molar
Sequence (Q16552 24-155): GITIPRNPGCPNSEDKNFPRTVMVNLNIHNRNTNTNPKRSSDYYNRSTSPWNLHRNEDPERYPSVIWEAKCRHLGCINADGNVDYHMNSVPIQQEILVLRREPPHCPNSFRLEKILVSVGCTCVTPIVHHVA
pIC50: −log10 of the molar value.
ENDPOINT NAME: pIC50

COMPOUND: Cc1nonc1C(=O)N[C@H](c1nc2nc([C@H]3C[C@](O)(C(F)(F)F)CCN3C(=O)C34CC(F)(C3)C4)ccc2[nH]1)C(C1CC1)C1CC1 (single isomer, unassigned)
pIC50: 5.60
//
COMPOUND: Cc1nonc1C(=O)N[C@H](c1nc2nc([C@H]3CC(F)(F)CCN3C(=O)C34CC(F)(C3)C4)ccc2[nH]1)C(C1CC1)C1CC1 (single isomer, unassigned)
pIC50: 6.40

I: O=C(N[C@H](c1nc2nc([C@@H]3C[C@@](O)(C(F)F)CCN3C(=O)C34CC(F)(C3)C4)ccc2[nH]1)C(C1CC1)C1CC1)C1(F)CC1 (single isomer, unassigned)
II: O=C(N1CCC(F)(F)CC1c1ccc2[nH]c(C(NC(=O)C3(C(F)(F)F)CC3)C(C3CC3)C3CC3)nc2n1)C12CC(F)(C1)C2 (centres unmarked)
III: Cc1nonc1C(=O)N[C@H](c1nc2nc([C@@H]3CC(F)(F)CCN3C(=O)C34CC(F)(C3)C4)ccc2[nH]1)C(C1CC1)C1CC1 (single isomer, unassigned)
Inquiry: // smallest pIC50 at index 0, largest at the end Rank them, then answer with their labels in that order.
Reply text: II, III, I
(II: 7.20, III: 7.90, I: 8.30)

---

biological target: IL-17A (Homo sapiens, UniProt Q16552); assay: Inhibition of IL-17A induced IL-6 release from dermal fibroblast cell line (HDF cell line assay); details: human dermal fibroblasts (HDF) stimulated with IL-17A 50 pM + TNF-α 25 pM; IL-6 measured by HTRF; pIC50 = −log10[IC50], IC50 molar
ENDPOINT NAME: IC50 (nM)

// worked examples, IC50 included
COMPOUND: Cc1nonc1C(=O)N[C@@H](c1nc2nc([C@@H]3CC(F)(F)CCN3C(=O)C34CC(F)(C3)C4)ccc2[nH]1)C(C1CC1)C1CC1 (single isomer, unassigned)
IC50 [nM]: 3160
--
COMPOUND: O=C(N[C@H](c1nc2nc([C@H]3C[C@](O)(C(F)F)CCN3C(=O)C34CC(F)(C3)C4)ccc2[nH]1)C(C1CC1)C1CC1)C1(F)CC1 (single isomer, unassigned)
IC50 [nM]: 794
--
COMPOUND: Cc1nonc1C(=O)NC(c1nc2nc(C3CC(F)(F)CCN3C(=O)C34CC(F)(C3)C4)ccc2[nH]1)C(C1CC1)C1CC1 (stereo not drawn)
IC50 [nM]: 63.1

a: Cc1nonc1C(=O)N[C@@H](c1nc2nc([C@H]3CC(F)(F)CCN3C(=O)C34CC(F)(C3)C4)ccc2[nH]1)C(C1CC1)C1CC1 (single isomer, unassigned)
b: Cc1nonc1C(=O)N[C@H](c1nc2nc([C@@H]3C[C@@](O)(C(F)(F)F)CCN3C(=O)C34CC(F)(C3)C4)ccc2[nH]1)C(C1CC1)C1CC1 (single isomer, unassigned)
Inquiry: Kindly identify which of a and b has the larger recorded IC50 value. Give the label of your selection.
Reply text: a
